- EXPERIMENTAL_SYSTEM: Human UII (U-II receptor) in 6D9 human rhabdomyosarcoma cells (Homo sapiens, UniProt Q9UKP6)
- Construct: 6D9: isolated by dilution subcloning of RMS13 cells, ATCC® Number: CRL-2061; host or cells: 6D9 human rhabdomyosarcoma cells (subclone of RMS13)
- Sequence (Q9UKP6 1-389): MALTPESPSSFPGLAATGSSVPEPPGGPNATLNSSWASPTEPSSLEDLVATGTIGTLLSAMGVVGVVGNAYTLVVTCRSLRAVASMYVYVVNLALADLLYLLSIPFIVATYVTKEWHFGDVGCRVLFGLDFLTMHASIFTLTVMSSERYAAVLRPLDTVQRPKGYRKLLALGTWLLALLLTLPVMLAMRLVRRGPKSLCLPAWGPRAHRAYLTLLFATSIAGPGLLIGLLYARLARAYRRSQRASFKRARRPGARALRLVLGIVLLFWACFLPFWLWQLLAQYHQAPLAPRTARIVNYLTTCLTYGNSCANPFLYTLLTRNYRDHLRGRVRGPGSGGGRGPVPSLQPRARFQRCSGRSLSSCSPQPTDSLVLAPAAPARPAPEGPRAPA
- EXPERIMENT_NOTES: Human UII Calcium Mobilization Assay
- Type: cell-based
- EXPERIMENTAL_CONTEXT: 6D9 human rhabdomyosarcoma cells, FLIPR TETRA, average; read-out: Human UII Ca+ Mobilization Average IC50
pIC50: −log10 of the molar value.
Collected pIC50 values appear next to each entry.
MEASURED_ATTRIBUTE: pIC50

COMPOUND	MEASUREMENT
CCN1CCN(c2cccc3c2CN(C(c2ccc(OC)c(OC)c2)C2CCN(S(=O)(=O)c4cccs4)CC2)C3=O)CC1 (stereo not drawn)	5.48
CCN1CCN(c2cccc3c2CN(C(c2ccc(OC)c(OC)c2)C2CCN(S(=O)(=O)c4cn(C)c(C)n4)CC2)C3=O)CC1 (stereo not drawn)	5.51
CCN1CCN(c2cccc3c2CN([C@H](CCCNCc2ccc(F)cc2)c2ccc(OC)c(OC)c2)C3=O)CC1	6.97
CCN1CCN(c2cccc3c2CN([C@H](CCCNS(=O)(=O)c2cnc(C)n2C)c2ccc(OC)c(OC)c2)C3=O)CC1	7.19
CCN1CCN(c2cccc3c2CN([C@H](CCCN(C)Cc2ccccc2)c2ccc(OC)c(OC)c2)C3=O)CC1	7.15
CCN1CCN(c2cccc3c2CN([C@H](CCCN(Cc2ccncc2)Cc2ccncc2)c2ccc(OC)c(OC)c2)C3=O)CC1	7.70
CCN1CCN(c2cccc3c2CN([C@H](CCCn2cnnn2)c2ccc(OC)c(OC)c2)C3=O)CC1	5.86
CCN1CCN(c2cccc3c2CN([C@H](CCCNC(=O)c2ccco2)c2ccc(OC)c(OC)c2)C3=O)CC1	6.40
CCN1CCN(c2cccc3c2CN([C@H](CCCNS(=O)(=O)c2cccs2)c2ccc(OC)c(OC)c2)C3=O)CC1	8.10
CCN1CCN(c2cccc3c2CN([C@H](CCCn2ccnc2C(C)C)c2ccc(OC)c(OC)c2)C3=O)CC1	6.69
CCN1CCN(c2cccc3c2CN([C@H](CCCN(C)Cc2ccccc2F)c2ccc(OC)c(OC)c2)C3=O)CC1	7.25
COc1ccc([C@@H](CCCSc2nnnn2C)N2Cc3c(cccc3N3CCNCC3)C2=O)cc1OC	5.81
CCN1CCN(c2cccc3c2CN([C@H](CCCNC(=O)c2c(C)n[nH]c2C)c2ccc(OC)c(OC)c2)C3=O)CC1	6.89
COc1ccc([C@@H](CCCNS(=O)(=O)c2cccs2)N2Cc3c(cccc3N3CCN(C(C)C)CC3)C2=O)cc1OC	7.28
CC[N+]1(C)CCN(c2cccc3c2CN([C@H](CCCN(Cc2ccccc2)Cc2ccccc2)c2ccc(OC)c(OC)c2)C3=O)CC1	5.55
